The measurements presented in this section are drawn from paper PMC9954146.

Experiment: Pharmacokinetic analysis in mice
Format: in vivo, mouse
Settings: male, BALB/c hairy, mouse, plasma, PO, 50 mg/kg single dose
parameter: bioavailability
Answers without a unit are incomplete; give the number and then its unit.

For record "Cc1cc(/C=C/C#N)cc(C)c1Nc1ccnc(Nc2ccc(C#N)cc2)n1" the listed bioavailability is 49.1%

###

Test: Pharmacokinetic analysis in mice
Format: in vivo, mouse
Settings: male, BALB/c hairy, mouse, plasma, iv, 2 mg/kg, 2 mg/kg single dose
parameter: Cmax (µM)
Give a bare numeral; the unit µM is implied.

For record "Cc1cc(/C=C/C#N)cc(C)c1Nc1ccnc(Nc2ccc(C#N)cc2)n1" the listed Cmax is 22.4

###

Test: Pharmacokinetic analysis in mice
Assay type: in vivo, mouse
Details: male, BALB/c hairy, mouse, plasma, PO, 50 mg/kg single dose
parameter: AUC(0-t) (µM·h)
Give a bare numeral; the unit µM·h is implied.

For record Cc1cc(/C=C/C#N)cc(C)c1Nc1ccnc(Nc2ccc(C#N)cc2)n1 [rilpivirine] the listed AUC(0-t) is 247
